# Tested on: COLO320DM cells
# Assay type: cell-based
# study-conditions: COLO320DM cells, absolute IC50; read-out: COLO320DM Proliferation Abs IC50
# Experimental: COLO320DM proliferation assay IC50: In some embodiments, inhibition of cell proliferation by provided technologies were assessed using cell lines related to or from certain conditions, disorders or diseases. In some embodiments, cell proliferation was assessed in COLO320DM cells. […] The assay plates were read using the CellTiter Glo protocol on a GloMax microplate reader, and the data analyzed using GraphPad Prism.
measurement-name: IC50

## Task Give the measured IC50 of CC(=O)N1CCC[C@]12CC=CCCCC1(CCCC=CCCCOC(=O)N3CC[C@@](C(=O)N[C@@H](Cc4ccccc4C(F)(F)F)C(=O)N[C@@H](Cc4csc5ccccc45)C(=O)N[C@@H](CCC(=O)N(C)C)C(N)=O)(C3)NC(=O)[C@H](CC(C)C)NC(=O)[C@H](Cc3ccccc3)NC(=O)[C@H](C)NC(=O)[C@H](C)NC(=O)[C@H](Cc3cccc(C(=O)O)c3)NC(=O)[C@H](CC(=O)O)NC1=O)NC(=O)[C@H](CC(C)(C)C)NC(=O)[C@H](CC(=O)O)NC2=O (stereo partly shown) [I-2532] .
## Result > 20 µM
